All figures here come from ChEMBL document CHEMBL1136118.

Tested on: Escherichia coli
protocol: In vitro antibacterial activity against Escherichia coli ATCC 25922
Type: functional

{"compound": "CN(CC(=O)O)NC(=O)C[C@H](N)CC(O)CN1CCOCC1 (some centres undefined)", "MIC": "> 256 µg/mL"}
{"compound": "CN(CP(=O)(O)O)NC(=O)C[C@H](N)C[C@@H](O)CN", "MIC": "> 256 µg/mL"}
{"compound": "CN(CC(=O)O)NC(=O)C[C@H](N)C[C@H](O)CN", "MIC": "128 µg/mL"}
{"compound": "CC(C)C[C@H](N)C(=O)NC[C@H](O)C[C@@H](N)CC(=O)NN(C)CC(=O)O", "MIC": "16 µg/mL"}
{"compound": "CN(CC(=O)O)NC(=O)C[C@H](N)C[C@H](O)CCN", "MIC": "> 256 µg/mL"}
{"compound": "CN(CP(C)(=O)O)NC(=O)C[C@H](N)C[C@@H](O)CN", "MIC": "> 256 µg/mL"}
{"compound": "CN(CC(=O)O)NC(=O)C[C@H](N)C[C@@H](O)CN=C(N)N", "MIC": "> 256 µg/mL"}
{"compound": "CN(Cc1nn[nH]n1)NC(=O)C[C@H](N)C[C@@H](O)CN", "MIC": "> 256 µg/mL"}
{"compound": "CN(CC(=O)O)NC(=O)C[C@H](N)C[C@@H](O)CN [NEGAMYCIN]", "MIC": "4 µg/mL"}
{"compound": "NC[C@H](O)C[C@@H](N)CC(=O)NN1CCC[C@H]1C(=O)O", "MIC": "> 256 µg/mL"}
{"compound": "CN(CC(=O)O)NC(=O)C[C@H](N)CC(O)CN1CC[C@H](N)C1 (some centres undefined)", "MIC": "> 256 µg/mL"}
{"compound": "CCCNC[C@H](O)C[C@@H](N)CC(=O)NN(C)CC(=O)O", "MIC": "> 256 µg/mL"}
{"compound": "NC[C@H](O)C[C@@H](N)CC(=O)NOCC(=O)O", "MIC": "> 256 µg/mL"}
{"compound": "CN(CC(=O)O)NC(=O)C[C@H](N)C[C@@H](O)CCN", "MIC": "> 256 µg/mL"}
